System: 34 kDa Mst kinase (Mst 1 cleavage)
Assay: 34 kDa Mst kinase activation / Mst 1 cleavage in purified osteoclasts
Assay type: cell-based
Conditions: purified osteoclasts
MEASURE_NAME: activation of the 34 kDa Mst kinase

# COMPOUND, MEASURE_NAME, RESULT
measured = [
    ("NCCC(O)(P(=O)(O)O)P(=O)(O)O [pamidronate]", "activation of the 34 kDa Mst kinase", "induce activation"),
    ("NCCCC(O)(P(=O)(O)O)P(=O)(O)O [alendronate, monosodium trihydrate]", "activation of the 34 kDa Mst kinase", "induce activation"),
    ("O=P(O)(O)C(O)(Cc1cccnc1)P(=O)(O)O [risedronate]", "activation of the 34 kDa Mst kinase", "induce activation"),
]
